- MEASUREMENT_PROTOCOL: duplex melting temperature (HRM, EvaGreen); higher = more stable duplex
- MEASUREMENT_PARAMETERS: duplex concentration 1 µM; backbone: PS-PS (both strands fully phosphorothioate)
Measured duplex melting temperature, listed per entry.
ENDPOINT_LABEL: duplex melting temperature (°C)

{"columns": ["RECORD_SEQUENCE", "ENDPOINT_LABEL", "UNIT_TAG", "REPORTED_RESULT"],
 "data": [
  ["GAGCAGAAGGGGTTGT", "duplex melting temperature", "°C", 49.7],
  ["CGGTGCTTTTGGTAGC", "duplex melting temperature", "°C", 48.5],
  ["CTGTAAGGCGATATGTT", "duplex melting temperature", "°C", 46.6],
  ["GGACGGCGTT", "duplex melting temperature", "°C", 40],
  ["AATGAGGAGTGAAATGG", "duplex melting temperature", "°C", 45.7],
  ["GATCTCTCTATCATCGTTTATTGGGTAT", "duplex melting temperature", "°C", 55.1],
  ["CGTGTGGATAATTAGCT", "duplex melting temperature", "°C", 45.7],
  ["GTGAAACAATGCTGTAG", "duplex melting temperature", "°C", 43.9],
  ["CGACATGTATGGCACAG", "duplex melting temperature", "°C", 50.2],
  ["GCCCGAGCATGACTGCG", "duplex melting temperature", "°C", 59],
  ["GTGGTACAAATGCGACC", "duplex melting temperature", "°C", 49.9],
  ["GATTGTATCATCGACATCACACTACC", "duplex melting temperature", "°C", 56.3],
  ["CCACTAGCGGCGCCGTT", "duplex melting temperature", "°C", 62.6],
  ["GCAGGAGCCGCGACCTG", "duplex melting temperature", "°C", 62.6],
  ["CTACCAGCGGCGCCGTT", "duplex melting temperature", "°C", 63.5],
  ["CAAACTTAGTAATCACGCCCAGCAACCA", "duplex melting temperature", "°C", 62.3],
  ["CGTGCAGCACTACTTG", "duplex melting temperature", "°C", 50.1],
  ["ATAACTTACTCTCGCCT", "duplex melting temperature", "°C", 47.4],
  ["CACAGCGACATGTATGG", "duplex melting temperature", "°C", 51.1],
  ["CGCGCGAGTATTTATAACCT", "duplex melting temperature", "°C", 52.5],
  ["GTCATTGTGCTTTTGC", "duplex melting temperature", "°C", 45.1],
  ["GCGGTTGGTGGCCAAC", "duplex melting temperature", "°C", 56.4],
  ["AGGAGTGAATGAAATGG", "duplex melting temperature", "°C", 43.7],
  ["AGCTGAGCCTGCCGCC", "duplex melting temperature", "°C", 61.1],
  ["AGAGCGCCCTGCTGCC", "duplex melting temperature", "°C", 61.7],
  ["AATGTCGAACAGCAATT", "duplex melting temperature", "°C", 47.2],
  ["CGGCGCGCTG", "duplex melting temperature", "°C", 44.8],
  ["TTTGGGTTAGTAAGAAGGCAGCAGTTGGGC", "duplex melting temperature", "°C", 64.9],
  ["CTCAGAGTAGAGCCGA", "duplex melting temperature", "°C", 49.9],
  ["CGATTTTGTCAAGCCT", "duplex melting temperature", "°C", 45],
  ["CCGTTGCTGCTAGG", "duplex melting temperature", "°C", 45.8],
  ["AACGAATGTCAGCAATT", "duplex melting temperature", "°C", 47.1],
  ["GTGAGCAGAAGGGGTT", "duplex melting temperature", "°C", 51],
  ["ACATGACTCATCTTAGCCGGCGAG", "duplex melting temperature", "°C", 63.8],
  ["TTGAAAACCCATGTGC", "duplex melting temperature", "°C", 44.4],
  ["TTCTACATCCATCTTAATCCCA", "duplex melting temperature", "°C", 49.9],
  ["CCCAGGCCTCGGATTTA", "duplex melting temperature", "°C", 56.8],
  ["CTCGGAGGCCCCATTTA", "duplex melting temperature", "°C", 56.3],
  ["TACTTCCAACGTAGG", "duplex melting temperature", "°C", 45],
  ["TTCGCGGTCTCCATTA", "duplex melting temperature", "°C", 51.5],
  ["CCGCTCAGAGTAGAGA", "duplex melting temperature", "°C", 49.2],
  ["TTAACCTGCAATGGATC", "duplex melting temperature", "°C", 45.6],
  ["ACTGTATCGCCCTA", "duplex melting temperature", "°C", 43.6],
  ["GAACTGCCACTACCAA", "duplex melting temperature", "°C", 48.7],
  ["CTTTTGTGCGGGTAGC", "duplex melting temperature", "°C", 48.7],
  ["CGGGATTTCTGGCATCATTGTCCT", "duplex melting temperature", "°C", 59.9],
  ["ACTCGCTCTACCTTAAT", "duplex melting temperature", "°C", 46.7],
  ["GCTGAACTAACCACCA", "duplex melting temperature", "°C", 47.5],
  ["GAACCGTTGATGATCTC", "duplex melting temperature", "°C", 46.7],
  ["TGTCGCACCCTACTA", "duplex melting temperature", "°C", 49.8],
  ["CAAGCCTCGATTTTGT", "duplex melting temperature", "°C", 46.6],
  ["TGTAAGACTTCTGCCAGAAA", "duplex melting temperature", "°C", 51.3],
  ["TCTACACCGCGA", "duplex melting temperature", "°C", 41.3],
  ["GGTGGCGTTCTT", "duplex melting temperature", "°C", 40.1],
  ["AGCACGGTGGTACAACA", "duplex melting temperature", "°C", 50.1],
  ["GATGCCGCAGCGACCTG", "duplex melting temperature", "°C", 61.3],
  ["TATTCTGCCAATGGAAC", "duplex melting temperature", "°C", 45.3],
  ["TCTCGCGGTTCCATTA", "duplex melting temperature", "°C", 50.4],
  ["TGCCATGTTGAAAACC", "duplex melting temperature", "°C", 44.3],
  ["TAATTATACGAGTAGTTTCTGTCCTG", "duplex melting temperature", "°C", 53.5],
  ["GCTGTGAAACAATGTAG", "duplex melting temperature", "°C", 43.7],
  ["TTGTAGTTGACGTTTGTGATTTAGTGAATT", "duplex melting temperature", "°C", 57.2],
  ["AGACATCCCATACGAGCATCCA", "duplex melting temperature", "°C", 58.4],
  ["CTAAACTGTTATAGCCGG", "duplex melting temperature", "°C", 46.2],
  ["GAGGCAGCCGCGACCTG", "duplex melting temperature", "°C", 63.7]
]}
